Taken from paper PMC9230784.

Target: Recombinant human MAO-A (Homo sapiens, UniProt P21397)
Construct: purchased Sigma-Aldrich (St. Louis, MO, USA)
Sequence (P21397 whole entry): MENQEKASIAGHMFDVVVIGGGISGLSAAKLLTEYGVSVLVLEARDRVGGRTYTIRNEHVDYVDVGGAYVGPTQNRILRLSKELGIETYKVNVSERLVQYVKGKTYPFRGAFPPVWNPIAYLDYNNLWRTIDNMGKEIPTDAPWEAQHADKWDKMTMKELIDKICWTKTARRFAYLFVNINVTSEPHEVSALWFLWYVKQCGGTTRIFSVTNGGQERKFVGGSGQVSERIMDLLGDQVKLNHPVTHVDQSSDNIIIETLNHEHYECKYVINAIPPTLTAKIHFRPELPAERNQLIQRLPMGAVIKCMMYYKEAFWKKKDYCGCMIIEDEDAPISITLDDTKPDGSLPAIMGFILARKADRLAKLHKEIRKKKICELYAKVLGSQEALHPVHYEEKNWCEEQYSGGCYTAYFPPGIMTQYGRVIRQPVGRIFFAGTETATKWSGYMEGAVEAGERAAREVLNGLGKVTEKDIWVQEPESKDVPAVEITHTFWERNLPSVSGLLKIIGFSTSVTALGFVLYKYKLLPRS
Test: biochemical
Assay Endpoint: IC50

// query Using the record for O=C(Cn1nc(N2CCOCC2)ccc1=O)NN=Cc1ccc(F)cc1 , report its IC50.
// result > 40 µM

// query Using the record for COc1cccc(N2CCN(c3ccc(=O)n(CC(=O)NN=Cc4ccc(Cl)cc4)n3)CC2)c1 , report its IC50.
// result 22.9 µM

// query Using the record for O=C(Cn1nc(N2CCOCC2)ccc1=O)NN=Cc1ccc(Cl)cc1 , report its IC50.
// result > 40 µM

###

Target: Recombinant human MAO-A (Homo sapiens, UniProt P21397)
Construct: purchased Sigma-Aldrich (St. Louis, MO, USA)
Test: biochemical
Settings: kynuramine 0.06 mM; highest concentration 40 µM; read-out: IC50 (µM) MAO-A
Protocol: The IC50 values were determined by measuring the residual activity at different concentrations of the compounds and by using GraphPad Prism software 5.0. […] BACE1 inhibitory activities were tested by the BACE1 activity detection kit. The assay method was described previously. Recombinant human MAO-A and MAO-B, AChE from Electrophorus electricus, BChE from equine serum, BACE1, and their substrates and reference inhibitors were purchased from Sigma-Aldrich (St. Louis, MO, USA). […]
Recorded measurements of IC50, one per entry

INSERT INTO measurements (compound, assay_endpoint, recorded_value) VALUES
  ('Cc1ccc(C=NNC(=O)Cn2nc(N3CCN(c4cccc(C(F)(F)F)c4)CC3)ccc2=O)cc1 [TR11]', 'IC50', '18.5 µM'),
  ('O=C(Cn1nc(N2CCN(c3cccc(C(F)(F)F)c3)CC2)ccc1=O)NN=Cc1ccc(F)cc1 [TR9]', 'IC50', '17.1 µM'),
  ('COc1cccc(N2CCN(c3ccc(=O)n(CC(=O)NN=Cc4ccc(Br)cc4)n3)CC2)c1 [TR6]', 'IC50', '12.3 µM'),
  ('O=C(Cn1nc(N2CCN(c3cccc(C(F)(F)F)c3)CC2)ccc1=O)NN=Cc1ccccc1 [TR7]', 'IC50', '14.4 µM'),
  ('COc1cccc(N2CCN(c3ccc(=O)n(CC(=O)NN=Cc4ccccc4)n3)CC2)c1 [TR1]', 'IC50', '17.3 µM'),
  ('O=C(Cn1nc(N2CCN(c3cccc(C(F)(F)F)c3)CC2)ccc1=O)NN=Cc1ccc(Br)cc1 [TR13]', 'IC50', '31 µM');

With those in mind, consider the next compound.
// query Using the record for CN(C)c1ccc(C=NNC(=O)Cn2nc(N3CCN(c4cccc(C(F)(F)F)c4)CC3)ccc2=O)cc1 [TR12] , report its IC50.
// result 14.7 µM
